Origin of values: ChEMBL document CHEMBL1152288

Experiment: Volume of distribution at steady state in Sprague-Dawley rat at 5 mg/kg, iv
Type: ADME, organism-based
Parameters: dose 5 mg/kg, route intravenous
Conditions: in vivo, read-out: Vdss
# maps each entry to its Vd
Please respond with the number in L/kg and leave the unit unwritten.

C=C(F)CN(CC)C(=O)[C@@]1(c2cccs2)C[C@H]1CN	5.5

Now look at this one.
Problem: Given the entry C=CCN(CC=C)C(=O)[C@@]1(c2cccs2)C[C@H]1CN , report its measured Vd.
Result: 4.4

* * *

Experiment: Renal clearance in Beagle dog at 5 mg/kg, iv or 30 mg/kg, po
Format: ADME, organism-based, Canis lupus familiaris, Kidney
Conditions: in vivo, read-out: CL_renal
# CL renal listing for each entry below
API: value field is a number in mL/min/kg; no unit string.

C=CCN(CC=C)C(=O)[C@@]1(c2cccs2)C[C@H]1CN.Cl	2

# next compound below
Problem: What measured CL renal goes with C=C(F)CN(CC)C(=O)[C@@]1(c2cccs2)C[C@H]1CN.Cl ?
Result: 2.2
